# measured.target: hNET (Homo sapiens, UniProt P23975)
# Sequence (P23975 whole entry): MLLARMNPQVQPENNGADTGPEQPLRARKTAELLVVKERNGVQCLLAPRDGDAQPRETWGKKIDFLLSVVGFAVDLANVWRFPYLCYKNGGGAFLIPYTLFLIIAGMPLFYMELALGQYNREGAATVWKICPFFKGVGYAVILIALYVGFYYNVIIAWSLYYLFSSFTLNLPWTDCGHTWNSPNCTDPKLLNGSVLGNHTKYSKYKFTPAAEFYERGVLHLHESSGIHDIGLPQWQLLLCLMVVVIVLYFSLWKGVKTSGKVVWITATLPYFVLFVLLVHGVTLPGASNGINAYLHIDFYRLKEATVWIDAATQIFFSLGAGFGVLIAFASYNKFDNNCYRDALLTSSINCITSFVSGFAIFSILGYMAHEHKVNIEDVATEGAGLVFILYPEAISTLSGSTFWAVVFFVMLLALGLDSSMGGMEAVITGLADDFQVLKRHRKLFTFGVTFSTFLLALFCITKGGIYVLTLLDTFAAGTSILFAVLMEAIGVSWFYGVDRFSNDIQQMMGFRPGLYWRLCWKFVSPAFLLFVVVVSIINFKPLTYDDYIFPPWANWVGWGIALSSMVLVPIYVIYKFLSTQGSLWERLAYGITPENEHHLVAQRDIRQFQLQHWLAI
# protocol.details: Drug-induced release of preloaded [3H]NE from HEK-hNET cells
# Assay type: cell-based
# condition: relative to maximal AUC induced by METH (0.3 or 1 μM)
# maps each entry to its % maximum release ± sem, hNET [3H]NE

Reading of % maximum release ± sem, hNET [3H]NE for CC(C(=O)c1ccc2c(c1)OCO2)N(C)C (stereo not shown) [Dimethylone, bk-MDDMA] with hNET (Homo sapiens, UniProt P23975): 9.9 ± 2.2%

Query CNC(C)Cc1ccc2c(c1)CCO2 (stereo not shown) [5-MAPDB] on hNET (Homo sapiens, UniProt P23975); % maximum release ± sem, hNET [3H]NE returned: 64.2 ± 4.7%

Record CCCC(NCC)C(=O)c1ccc2c(c1)OCO2 (stereo not shown) [N-Et pentylone, N-ethyl pentylone] / hNET (Homo sapiens, UniProt P23975), % maximum release ± sem, hNET [3H]NE recorded as 15.6 ± 8.4%

% maximum release ± sem, hNET [3H]NE value, target or system hNET (Homo sapiens, UniProt P23975), for CCNC(C)C(=O)c1ccc(Cl)cc1 (stereo not shown) [4-CEC, 4-Cl-ethcathinone] : 5.9 ± 2.5%
